- TARGET OR SYSTEM: human NEP (Homo sapiens, UniProt P08473)
- Construct: 1182-ZN
- Sequence (P08473 52-750 limits assumed): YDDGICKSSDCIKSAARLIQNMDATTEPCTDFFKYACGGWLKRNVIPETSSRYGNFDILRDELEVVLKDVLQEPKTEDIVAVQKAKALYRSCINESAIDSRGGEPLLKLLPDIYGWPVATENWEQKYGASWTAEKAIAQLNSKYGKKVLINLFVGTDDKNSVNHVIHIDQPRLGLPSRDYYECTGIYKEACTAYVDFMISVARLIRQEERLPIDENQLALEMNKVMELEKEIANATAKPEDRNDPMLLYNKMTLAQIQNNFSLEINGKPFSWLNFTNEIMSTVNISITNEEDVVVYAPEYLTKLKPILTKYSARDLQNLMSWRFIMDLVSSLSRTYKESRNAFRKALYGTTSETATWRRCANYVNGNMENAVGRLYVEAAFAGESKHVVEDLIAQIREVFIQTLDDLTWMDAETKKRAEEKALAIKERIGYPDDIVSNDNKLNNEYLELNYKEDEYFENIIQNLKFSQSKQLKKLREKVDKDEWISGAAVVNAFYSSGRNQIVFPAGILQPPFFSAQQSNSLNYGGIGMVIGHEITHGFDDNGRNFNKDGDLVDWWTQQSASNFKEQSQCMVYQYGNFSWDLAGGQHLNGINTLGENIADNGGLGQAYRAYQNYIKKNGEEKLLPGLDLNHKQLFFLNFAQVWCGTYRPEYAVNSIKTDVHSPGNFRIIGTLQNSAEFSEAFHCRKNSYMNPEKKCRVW
- TEST DESCRIPTION: In vitro enzyme inhibition assay, inhibitor potency at human NEP
- CONDITION LABEL: recombinant human NEP, fluorogenic peptide substrate 10 μM, 37° C.; values given as ranges
- Description: The inhibitory activities of compounds at human and rat neprilysin (EC 3.4.24.11; NEP) and human angiotensin converting enzyme (ACE) were determined using in vitro assays as described below. Recombinant human NEP and recombinant human ACE were obtained commercially (R&D Systems, Minneapolis, Minn., catalog numbers 1182-ZN and 929-ZN, respectively). […] Plates were read on a fluorometer with excitation and emission wavelengths set to 320 nm and 405 nm, respectively. […]
QUANTITY MEASURED: Ki

Simply: CCOC[C@](C)(C[C@@H](Cc1ccc(-c2cc(Cl)ccc2F)cc1)NC(=O)c1ncccn1)C(=O)O , human NEP (Homo sapiens, UniProt P08473), Ki = 1.26 to 3.16 nM

Record for Cc1cnc(C(=O)N[C@H](Cc2ccc(-c3cc(Cl)ccc3F)cc2)C[C@@](C)(CN)C(=O)O)o1 under target or system human NEP (Homo sapiens, UniProt P08473): Ki reported as 1.26 to 3.16 nM

Entry COC[C@](C)(C[C@@H](Cc1ccc(-c2cc(Cl)ccc2F)cc1)NC(=O)c1cn(OC)nn1)C(=O)O , human NEP (Homo sapiens, UniProt P08473) data, Ki value: 1.26 to 3.16 nM

Noted Ki for COC[C@](C)(C[C@@H](Cc1ccc(-c2cc(Cl)ccc2F)cc1)NC(=O)c1ncccn1)C(=O)O , tested on human NEP (Homo sapiens, UniProt P08473): ≤ 1 nM

Record CC(C[C@@H](Cc1ccc(-c2cc(Cl)ccc2F)cc1)NC(=O)c1c[nH]nn1)(C(=O)O)C(=O)O / human NEP (Homo sapiens, UniProt P08473), Ki recorded as ≤ 1 nM
